# pKi per record follows
- Study Target: Glutamate receptor ionotropic, NMDA 1 (Rattus norvegicus, UniProt P35439)
pKi: −log10 of the molar value.

The examples below pair each entry with its known result.
O=C(O)c1cccc(C(=O)O)n1 [Dipicolinate] | < 5.00
O=C(O)c1cccnc1C(=O)O [pyridine-2,3-dicarboxylic acid] | < 5.00
N[C@@H](Cn1oc(=O)[nH]c1=O)C(=O)O | < 5.00
O=C(O)[C@@H]1C[C@H](CP(=O)(O)O)CCN1 [Selfotel] | 6.85

Query compound follows.
Prompt: So what does the record say about pKi for CCOC(=O)CC[C@H](N)C(=O)OCC [glutamic acid diethyl ester] ?
Completion: < 5.00

Every entry's value here was drawn from BindingDB's records for doi:10.1111/j.1476-5381.1988.tb11723.x.
